- Test system: DeltatarO mutant
- measurement_protocol: S. aureus survival, RN4220 and DeltatarO strains – OD600, teichoic acid synthesis inhibitors, primary screen (AID 463173)
- condition_parameters: S. aureus RN4220 wild type/DeltatarO growth, OD600, 18 h, screened at 18.75 µg/mL (by protocol)
The whole screen tested about 52,000 compounds, of which about 4,300 (8.3%) were called active. Cut-off read from the data, not from the text of the source: active = survival mostly below about 52% (no sharp cut-off); inactive = mostly above about 56%. Shown is part of a subset that was picked to be rich in actives.
Hello, when you answer, please use one of the following outcomes: TRUE (active), FALSE (inactive)

Past entries and their recorded results:
1. COc1ccc(-n2nc(C(=O)Nc3ccccn3)c3c4ccccc4n(C)c3c2=O)cc1: FALSE
2. CC(C)Cn1cc(NC(=O)N2CCN(c3cccc(C(F)(F)F)c3)CC2)c2ccccc2c1=O: FALSE
3. CCOC(=O)c1ccc2c(c1)[C@@H]1C=CC[C@@H]1[C@H](c1cccc(OC)c1OC)N2: TRUE
4. COc1cccc(NS(=O)(=O)c2ccc3c(c2)[C@H]2C=CC[C@H]2[C@@H](c2ccccc2Cl)N3)c1: FALSE
5. COc1cc(OC)c(NS(=O)(=O)c2c(C(=O)N3CCC(C)CC3)c(C)n(C)c2C)cc1Cl: TRUE

Hi team, can someone confirm the assay call for `CCOC(=O)C1CCN(C(=O)CSc2c3c(nc4ccc(Cl)cc24)CCCC3)CC1` ?
TRUE

How did this test come out for `CCOc1ccc(CCNC(=O)c2ccc3c(c2)sc2nc(-c4ccc(F)cc4)cn23)cc1OCC` ?
TRUE

====

Measured survival by item
- Test system: DeltatarO mutant
- measurement_protocol: S. aureus survival, RN4220 and DeltatarO strains – OD600, teichoic acid synthesis inhibitors, primary screen (AID 463173)
- condition_parameters: S. aureus RN4220 wild type/DeltatarO growth, OD600, 18 h, active compounds read low, screened at 18.75 µg/mL (by protocol)
Among all 52,000 compounds or so, about 4,300 (8.3%) were called active. The full list was thinned out, with actives kept by preference.

Worked set:
1. CCC(C)c1ccc(NC(=O)CSc2nncn2N)cc1 (stereo not given): 76% (inactive)
2. Cc1ccc(S(=O)(=O)c2cn(CC(=O)Nc3ccc4c(c3)OCO4)c3ccc(F)cc3c2=O)cc1: 69% (inactive)
3. COc1ccc(NS(=O)(=O)c2cc3[nH]c(=O)c(=O)[nH]c3cc2C)cc1Cl: 94% (inactive)
4. Cc1ccc(S(=O)(=O)c2cn(CC(=O)Nc3ccc4c(c3)OCO4)c3ccccc3c2=O)cc1C: 112% (inactive)

Continue with the next compound.
Note down survival recorded for `COc1cc(C(=O)Oc2c(Sc3ccccc3)c(C)nn2-c2ccccc2)cc(OC)c1OC`
83% (inactive)

====

- Tested on: DeltatarO mutant
- measurement_protocol: S. aureus survival, RN4220 and DeltatarO strains – OD600, teichoic acid synthesis inhibitors, primary screen (AID 463173)
- condition_parameters: S. aureus RN4220 wild type/DeltatarO growth, OD600, 18 h, active compounds read low, screened at 18.75 µg/mL (by protocol)
Out of some 52,000 compounds screened, about 4,300 (8.3%) were called active. The list comes from a sample in which actives are over-represented; it also holds close analogues and randomly drawn compounds.
survival strictly less than 70% = y. Otherwise n.

Check out these entries, answers already filled in.
1) O=C(Cc1ccc(Cl)cc1)Nc1ccc2oc(-c3ccccc3F)nc2c1: n
2) COc1cccc(-c2cnc(NCc3ccccc3Cl)n2C)c1: y
3) Cc1ccc(C)c(CN2C(=O)c3ccccc3S(=O)(=O)c3ccc(C(=O)N4CCN(Cc5ccccc5)CC4)cc32)c1: y
4) CCn1c2c(c(=O)n3ncc(C(=O)Nc4ccc(C(=O)OC)cc4)c13)CN(Cc1ccc(OC)cc1)CC2: n
5) Cc1cccc(NC(=O)CSc2nc(=O)n(Cc3ccccn3)c3c2CCC3)c1C: n
6) CCc1ccc(CNc2ncc(-c3cccc(OC)c3)n2C)cc1: y
7) CCOC(=O)c1ccccc1NC(=O)N(C)CCc1c(C)nn(CC)c1C: n
8) Cc1ccc(NC(=O)CC(C)S(=O)(=O)c2ccc3c(c2)NC(=O)CO3)cc1C (stereo not given): n

Please state whether survival is below 70% for `Cc1cc(C(=O)NCc2ccccc2)c2c(C)nn(-c3cccc(F)c3)c2n1`
y

====

- Tested on: DeltatarO mutant
- measurement_protocol: S. aureus survival, RN4220 and DeltatarO strains – OD600, teichoic acid synthesis inhibitors, primary screen (AID 463173)
- condition_parameters: S. aureus RN4220 wild type/DeltatarO growth, OD600, 18 h, screened at 18.75 µg/mL (by protocol)
Among all 52,000 compounds or so, about 4,300 (8.3%) were called active. Cut-off read from the data, not from the text of the source: active = survival mostly below about 52% (no sharp cut-off); inactive = mostly above about 56%. The sample holds actives, similar compounds and a random draw of the others, so the mix is not that of the screen.
Thanks in advance; please answer with one of these: active, inactive

Take a look at these entries with their results.
1) CCn1cc(CNC(=O)c2cc(-c3ccc(C)c(C)c3)nc3ccccc23)c(C)n1: inactive
2) Cc1ccc(-c2cc(C(=O)NCc3cnn(C)c3C)c3cc(Br)ccc3n2)cc1: active
3) CCn1cc(CNC(=O)c2cc(-c3ccc(C)cc3)nc3ccc(Br)cc23)c(C)n1: active

Query: recorded result category for `Cc1ccc(-c2cc(C(=O)NCc3ccccc3Cl)c3ccccc3n2)cc1C` in this test
inactive

Hi team, can someone confirm the assay call for `CCOc1ccc(-c2cc(C(=O)NCc3ccccc3Cl)c3ccccc3n2)cc1` ?
inactive

====

- Test system: DeltatarO mutant
- measurement_protocol: S. aureus survival, RN4220 and DeltatarO strains – OD600, teichoic acid synthesis inhibitors, primary screen (AID 463173)
- condition_parameters: S. aureus RN4220 wild type/DeltatarO growth, OD600, 18 h, active compounds read low, screened at 18.75 µg/mL (by protocol)
Out of some 52,000 compounds screened, about 4,300 (8.3%) were called active. Shown is part of a subset that was picked to be rich in actives.
Items are presented alongside their recorded survival.
Quick note: give the figure in %, leave out the unit.

// worked examples, survival included
1) COc1cccc(N2CC(NC(=O)c3cccs3)CC2=O)c1 (configuration not stated): 74
2) Cc1nc2nc(NC(=O)c3ccc(F)cc3)[nH]n2c(=O)c1Cc1ccccc1: 101
3) Cc1ccc(CNC(=O)c2c[nH]n3c(=O)c(Cc4ccc(F)cc4Cl)c(C)nc23)cc1: -13
4) CCN(CC)C(=O)c1sc2c(c1C)c(=O)n(-c1ccc(C)c(C)c1)c(=O)n2CC(=O)Nc1ccc(OC)cc1OC: 78
5) CCC(=O)N1CCc2cc(Br)cc(S(=O)(=O)N3CCCC(C(=O)NCc4ccccc4)C3)c21 (configuration not stated): 107
6) COc1cccc(NC(=O)c2sc3nc(C)c(C(=O)Nc4ccc(C)cc4C)c(-c4cccs4)c3c2N)c1: 122
7) O=C(Nc1ccc(Cl)cc1)N1CCN(c2ccc3nnc(-c4ccc(F)cc4)n3n2)CC1: 68
8) COc1ccc(-n2nc3ccc(NC(=O)c4cccc(OCCC(C)C)c4)cc3n2)cc1: 121
9) Cc1ccc(NC(=O)C2CCN(S(=O)(=O)c3ccc4c(c3)CCCC(=O)N4)CC2)cc1N(C)C: 120
10) Cc1nc2c(C(=O)NCc3ccccc3Cl)c[nH]n2c(=O)c1Cc1cccc(Cl)c1: -16

State its survival for this molecule: `Cc1ccc(CSc2nnc(-n3c(=O)c(C#N)cc4c(=O)n5cccc(C)c5nc43)s2)cc1`
101

Look up survival of `CCOc1ccc(OCC)c(NC(=O)c2csc3c2CCCC3)c1` and report it.
-2

Return survival (reported value) for this molecule: `CC(C)(C)c1ccc(OCC(=O)Nc2c(C(=O)c3ccc(F)cc3)oc3ccccc23)cc1`
99

Identify the reported survival for the following entry. `O=C(Nc1cccc(OC(=O)c2ccco2)c1)c1ccccc1`
58

Fill in reported survival for this entry: `Cc1ccc(C(=O)c2oc3ccccc3c2NC(=O)COc2ccc(C(C)C)cc2)cc1`
73

Tell me survival reported for `Cc1cccc(CSc2nc3c(c(=O)[nH]2)CCC3)c1`
69

For `CCCCCNC(=O)c1ccc2c(c1)ncn2-c1cccc(C)c1` , write its survival.
0

Identify measured survival associated with `O=C(Nc1ccccc1O)c1csc2c1CCCC2`
80

Write down survival measured for item `COc1cc(-c2nc3sccn3c2Nc2cccc(C)c2)ccc1O`
54

Answer with reported survival of `Cc1nc2c(C(=O)NCCc3ccc(Cl)cc3)c[nH]n2c(=O)c1Cc1ccc(Cl)cc1`
-14

Entry `CC(=O)Nc1ccc(-c2cn(CC(=O)NN)cn2)cc1` needs its survival filled in; supply it.
111

Respond only with survival recorded for `Cc1ccc(CNC(=O)CN2CCN(Cc3ccc(F)cc3Cl)C2=O)cc1`
79

Identify measured survival corresponding to `Cc1nc2nc(NC(=O)c3cccc(Cl)c3)[nH]n2c(=O)c1Cc1ccccc1`
111

Given `CCOc1ccc(CC(=O)Nc2c(C(=O)c3ccc(Cl)cc3)oc3ccccc23)cc1OCC` , respond with its survival.
48
